hERG current change (%, negative = inhibition) at 10uM reference
# system_name: human ether-à-go-go-related gene (hERG) potassium channel (human);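 also: peak tail current of the secondary pulse compared with the same well before compound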
# Sequence (Q12809 whole entry, looked up): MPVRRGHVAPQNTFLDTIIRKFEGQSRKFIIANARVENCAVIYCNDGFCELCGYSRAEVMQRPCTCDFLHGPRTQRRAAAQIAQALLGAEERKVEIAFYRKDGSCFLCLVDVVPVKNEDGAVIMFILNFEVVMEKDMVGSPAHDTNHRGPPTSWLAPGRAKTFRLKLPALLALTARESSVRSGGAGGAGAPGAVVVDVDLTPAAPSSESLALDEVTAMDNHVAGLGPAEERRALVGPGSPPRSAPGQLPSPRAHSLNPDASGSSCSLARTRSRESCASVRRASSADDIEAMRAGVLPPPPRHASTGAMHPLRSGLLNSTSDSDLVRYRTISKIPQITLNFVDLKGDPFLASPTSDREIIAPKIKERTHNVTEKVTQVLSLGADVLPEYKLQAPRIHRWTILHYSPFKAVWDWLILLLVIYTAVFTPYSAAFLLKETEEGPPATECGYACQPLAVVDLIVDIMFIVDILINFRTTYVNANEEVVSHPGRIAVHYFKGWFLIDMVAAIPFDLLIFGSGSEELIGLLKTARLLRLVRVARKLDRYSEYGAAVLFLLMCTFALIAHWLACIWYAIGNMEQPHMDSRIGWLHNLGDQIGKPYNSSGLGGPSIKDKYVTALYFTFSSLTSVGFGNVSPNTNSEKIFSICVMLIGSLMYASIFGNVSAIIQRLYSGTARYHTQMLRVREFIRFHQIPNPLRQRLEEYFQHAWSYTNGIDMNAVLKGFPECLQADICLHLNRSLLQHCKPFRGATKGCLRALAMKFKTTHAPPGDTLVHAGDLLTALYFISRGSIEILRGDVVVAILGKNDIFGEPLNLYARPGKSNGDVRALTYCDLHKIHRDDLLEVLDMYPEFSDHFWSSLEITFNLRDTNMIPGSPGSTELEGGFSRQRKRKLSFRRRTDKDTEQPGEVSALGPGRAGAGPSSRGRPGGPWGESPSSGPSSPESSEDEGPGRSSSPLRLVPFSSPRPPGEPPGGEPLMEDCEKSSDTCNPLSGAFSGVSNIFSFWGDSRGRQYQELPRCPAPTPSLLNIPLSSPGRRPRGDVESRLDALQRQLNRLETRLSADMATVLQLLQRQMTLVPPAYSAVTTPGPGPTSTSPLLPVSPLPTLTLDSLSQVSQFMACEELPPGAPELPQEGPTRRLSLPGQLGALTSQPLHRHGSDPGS
# protocol_description: primary screen, population patch clamp on CHO cells stably expressing hERG; higher = less effect of the substance
About 14,000 (4.5%) of roughly 310,000 compounds showed an effect of 50% or more. The effect is printed as a negative number. Many of the other results were omitted from the sample, so strong results are more common in it than they were.

Some solved cases for reference:
• COc1cc2c(cc1OC)C(c1ccccc1)CC2=O (stereo not drawn) = 7.03%
• CCN(CC)CCn1c(=N)n(CC(O)c2ccco2)c2ccccc21.Cl (stereo not drawn) = -73.2%
• CCCn1c(=N)n(CC(O)c2ccco2)c2ccccc21.Cl (stereo not drawn) = -43.8%
• O=C(NCCN1CCN(S(=O)(=O)c2ccc([N+](=O)[O-])cc2)CC1)C(=O)Nc1ccccc1 = 13.5%

For the molecule `COc1ccc(OC(=O)c2cccc([N+](=O)[O-])c2)c(C(=O)/C=C/c2cccs2)c1` , what hERG current change (%, negative = inhibition) at 10uM is on record? 3.99%

For the molecule `N#Cc1c2c(c(Nc3ccc(O)cc3)n3c1nc1ccccc13)CCC2` , what hERG current change (%, negative = inhibition) at 10uM is on record? 5.51%
